experimental_target: T1, human Ror2 (human, UniProt Q01974 34-403, limits assumed)
T1 construct: also called hROR2; receptor tyrosine kinase-like orphan receptor 2
T1 sequence (Q01974 34-403 limits assumed): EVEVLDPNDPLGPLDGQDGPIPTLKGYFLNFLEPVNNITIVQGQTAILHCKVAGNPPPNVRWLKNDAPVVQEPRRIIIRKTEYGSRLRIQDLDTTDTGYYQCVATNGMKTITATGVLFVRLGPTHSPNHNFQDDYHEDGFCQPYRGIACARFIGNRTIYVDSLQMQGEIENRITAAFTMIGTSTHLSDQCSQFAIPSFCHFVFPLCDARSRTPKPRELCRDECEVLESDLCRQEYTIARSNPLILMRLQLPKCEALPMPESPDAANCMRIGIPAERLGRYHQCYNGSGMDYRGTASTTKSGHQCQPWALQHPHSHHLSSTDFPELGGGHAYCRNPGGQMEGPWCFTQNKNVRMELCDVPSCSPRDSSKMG
assay_protocol: ELISA, human Ror2; ratio of signal at pH 6.0 to pH 7.4
As shown below, each of these binders has a reported ratio, pH 6.0/7.4 value.
Quick one: just the number, no unit, thanks!

Prompt line: Give reported ratio, pH 6.0/7.4 value for HC-M034Y (antibody, V domains shown) VH: EVQLQQSGPELVKPGASVKISCKTSGYTFTEYTYHWMKQSHRKSLEWIGGINTNNGGTGYNQKFKGKATLTVDKSSSTAYMELRSLTSEDSAVYFCARGSLYSYGNSYFDYWGQGTLVTVSS VL: QIVLTQSPAIMSASPGEKVTITCSATSSVSYMHWFQQKPGTSPKLWIYGTSNLASGVPARFSGSGSGTSYSLTISRMEAEDAATYYCQQRSSYPFTFGQGTKVEIK
Response line: 2.31

Prompt line: Give reported ratio, pH 6.0/7.4 value for HC-Y032D (antibody, V domains shown) VH: EVQLQQSGPELVKPGASVKISCKTSGYTFTEDTMHWMKQSHRKSLEWIGGINTNNGGTGYNQKFKGKATLTVDKSSSTAYMELRSLTSEDSAVYFCARGSLYSYGNSYFDYWGQGTLVTVSS VL: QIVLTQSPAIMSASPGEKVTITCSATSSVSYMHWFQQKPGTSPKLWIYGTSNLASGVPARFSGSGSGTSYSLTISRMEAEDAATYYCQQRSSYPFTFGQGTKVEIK
Response line: 2.88

Prompt line: Give reported ratio, pH 6.0/7.4 value for HC-L101F (antibody, V domains shown) VH: EVQLQQSGPELVKPGASVKISCKTSGYTFTEYTMHWMKQSHRKSLEWIGGINTNNGGTGYNQKFKGKATLTVDKSSSTAYMELRSLTSEDSAVYFCARGSFYSYGNSYFDYWGQGTLVTVSS VL: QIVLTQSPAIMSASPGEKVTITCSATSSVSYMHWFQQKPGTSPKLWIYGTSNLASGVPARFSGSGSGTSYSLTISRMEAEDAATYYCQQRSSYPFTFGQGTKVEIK
Response line: 1.46

Prompt line: Give reported ratio, pH 6.0/7.4 value for HC-Y111T (antibody, V domains shown) VH: EVQLQQSGPELVKPGASVKISCKTSGYTFTEYTMHWMKQSHRKSLEWIGGINTNNGGTGYNQKFKGKATLTVDKSSSTAYMELRSLTSEDSAVYFCARGSLYSYGNSYFDTWGQGTLVTVSS VL: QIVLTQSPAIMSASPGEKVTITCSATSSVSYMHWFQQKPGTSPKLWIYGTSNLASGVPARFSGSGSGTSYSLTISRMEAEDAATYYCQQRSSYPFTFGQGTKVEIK
Response line: 1.68

Prompt line: Give reported ratio, pH 6.0/7.4 value for HC-N052V (antibody, V domains shown) VH: EVQLQQSGPELVKPGASVKISCKTSGYTFTEYTMHWMKQSHRKSLEWIGGIVTNNGGTGYNQKFKGKATLTVDKSSSTAYMELRSLTSEDSAVYFCARGSLYSYGNSYFDYWGQGTLVTVSS VL: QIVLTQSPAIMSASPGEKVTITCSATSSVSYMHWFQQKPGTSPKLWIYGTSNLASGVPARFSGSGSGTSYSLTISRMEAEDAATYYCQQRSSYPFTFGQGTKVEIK
Response line: 2.56

Prompt line: Give reported ratio, pH 6.0/7.4 value for HC-R098H (antibody, V domains shown) VH: EVQLQQSGPELVKPGASVKISCKTSGYTFTEYTMHWMKQSHRKSLEWIGGINTNNGGTGYNQKFKGKATLTVDKSSSTAYMELRSLTSEDSAVYFCAHGSLYSYGNSYFDYWGQGTLVTVSS VL: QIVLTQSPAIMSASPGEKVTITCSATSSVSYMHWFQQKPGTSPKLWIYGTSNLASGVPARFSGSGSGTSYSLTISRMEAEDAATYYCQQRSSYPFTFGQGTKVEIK
Response line: 2.63

Prompt line: Give reported ratio, pH 6.0/7.4 value for HC-N052C (antibody, V domains shown) VH: EVQLQQSGPELVKPGASVKISCKTSGYTFTEYTMHWMKQSHRKSLEWIGGICTNNGGTGYNQKFKGKATLTVDKSSSTAYMELRSLTSEDSAVYFCARGSLYSYGNSYFDYWGQGTLVTVSS VL: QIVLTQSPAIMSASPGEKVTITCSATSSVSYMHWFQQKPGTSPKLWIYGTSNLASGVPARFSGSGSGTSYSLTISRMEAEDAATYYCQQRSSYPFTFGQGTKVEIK
Response line: 2.31

Prompt line: Give reported ratio, pH 6.0/7.4 value for HC-A097M (antibody, V domains shown) VH: EVQLQQSGPELVKPGASVKISCKTSGYTFTEYTMHWMKQSHRKSLEWIGGINTNNGGTGYNQKFKGKATLTVDKSSSTAYMELRSLTSEDSAVYFCMRGSLYSYGNSYFDYWGQGTLVTVSS VL: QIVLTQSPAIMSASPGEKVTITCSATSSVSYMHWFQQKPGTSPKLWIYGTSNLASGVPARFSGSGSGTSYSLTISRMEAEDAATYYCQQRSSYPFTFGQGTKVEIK
Response line: 1.98

Prompt line: Give reported ratio, pH 6.0/7.4 value for HC-A097T (antibody, V domains shown) VH: EVQLQQSGPELVKPGASVKISCKTSGYTFTEYTMHWMKQSHRKSLEWIGGINTNNGGTGYNQKFKGKATLTVDKSSSTAYMELRSLTSEDSAVYFCTRGSLYSYGNSYFDYWGQGTLVTVSS VL: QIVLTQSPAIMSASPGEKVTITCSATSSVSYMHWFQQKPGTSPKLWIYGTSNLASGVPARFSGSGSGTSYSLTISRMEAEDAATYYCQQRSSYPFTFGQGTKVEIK
Response line: 1.67

Prompt line: Give reported ratio, pH 6.0/7.4 value for HC-N106E (antibody, V domains shown) VH: EVQLQQSGPELVKPGASVKISCKTSGYTFTEYTMHWMKQSHRKSLEWIGGINTNNGGTGYNQKFKGKATLTVDKSSSTAYMELRSLTSEDSAVYFCARGSLYSYGESYFDYWGQGTLVTVSS VL: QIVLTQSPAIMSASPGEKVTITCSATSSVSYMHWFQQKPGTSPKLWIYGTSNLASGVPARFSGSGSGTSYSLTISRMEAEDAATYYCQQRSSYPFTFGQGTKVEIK
Response line: 1.95
